biological target: D(4) dopamine receptor (Homo sapiens) (UniProt P21917); conditions: Compound concentration 10 µM; call rule not given here
Sequence (P21917 whole entry): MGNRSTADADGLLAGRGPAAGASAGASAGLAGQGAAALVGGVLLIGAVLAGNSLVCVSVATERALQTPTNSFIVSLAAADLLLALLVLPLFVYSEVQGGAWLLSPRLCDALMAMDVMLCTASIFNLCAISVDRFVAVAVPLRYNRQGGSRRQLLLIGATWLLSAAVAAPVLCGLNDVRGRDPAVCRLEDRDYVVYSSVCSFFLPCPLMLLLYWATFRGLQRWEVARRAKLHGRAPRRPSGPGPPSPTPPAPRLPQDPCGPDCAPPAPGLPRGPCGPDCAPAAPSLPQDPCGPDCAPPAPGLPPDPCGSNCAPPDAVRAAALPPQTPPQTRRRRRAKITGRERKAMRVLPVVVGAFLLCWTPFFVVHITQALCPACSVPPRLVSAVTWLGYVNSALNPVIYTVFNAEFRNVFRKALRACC
Give one outcome, nothing more. List: 1.0 = active, 0.0 = inactive

compound=CCc1ccc(OCc2ccccc2C(=O)Nc2ccc3nc(C)cc(N)c3c2)cc1 classification=0.0
compound=O=C(O)Cn1c(C(=O)Nc2nc(-c3ccccc3Cl)cs2)cc2ccccc21 classification=0.0
compound=CN1CCC(C(=O)c2cccc(NC(=O)c3c(F)cc(F)cc3F)n2)CC1 classification=0.0
compound=CCc1nn2c(C)cc(C)nc2c1Cc1ccc(-c2nnc(C3CCNCC3)o2)cc1 classification=0.0

Ask: Recorded test call requested for `OC1(c2ccc(Cl)cc2)CCN(Cc2c[nH]c3ccccc23)CC1`
Result: 1.0

Ask: Query `O=C1N/C(=N/c2ccccc2F)S/C1=C\c1ccc(C(=O)O)cc1` next
Result: 1.0

Ask: Query CN1CCCC(n2nc(Cc3ccc(Cl)cc3)c3ccccc3c2=O)CC1 (stereo not given) next
Result: 1.0

Ask: Query `c1ccc(N2CCN(Cc3nc4ccccc4[nH]3)CC2)nc1` next
Result: 1.0

Ask: Query `NC[C@H](O)c1ccc(O)c(O)c1` next
Result: 0.0

Ask: Query CCOC(=O)c1c(C)[nH]c2ccc3c(c12)CN1CCc2cc(OC)ccc2C1O3 (stereo not given) next
Result: 0.0

Ask: Query OCc1cc(C(O)CNCCCCCCOCCCCc2ccccc2)ccc1O (stereo not given) next
Result: 1.0

Ask: Query `Clc1cccc(COc2cncc(N3CCNCC3)n2)c1` next
Result: 0.0

Ask: Query `C[N+]1(C)[C@@H]2C[C@@H](OC(=O)C(O)(c3cccs3)c3cccs3)C[C@H]1[C@@H]1O[C@@H]12` next
Result: 0.0
